Target: UniProt P49327
Sequence (P49327 whole entry, the tested form may be a part): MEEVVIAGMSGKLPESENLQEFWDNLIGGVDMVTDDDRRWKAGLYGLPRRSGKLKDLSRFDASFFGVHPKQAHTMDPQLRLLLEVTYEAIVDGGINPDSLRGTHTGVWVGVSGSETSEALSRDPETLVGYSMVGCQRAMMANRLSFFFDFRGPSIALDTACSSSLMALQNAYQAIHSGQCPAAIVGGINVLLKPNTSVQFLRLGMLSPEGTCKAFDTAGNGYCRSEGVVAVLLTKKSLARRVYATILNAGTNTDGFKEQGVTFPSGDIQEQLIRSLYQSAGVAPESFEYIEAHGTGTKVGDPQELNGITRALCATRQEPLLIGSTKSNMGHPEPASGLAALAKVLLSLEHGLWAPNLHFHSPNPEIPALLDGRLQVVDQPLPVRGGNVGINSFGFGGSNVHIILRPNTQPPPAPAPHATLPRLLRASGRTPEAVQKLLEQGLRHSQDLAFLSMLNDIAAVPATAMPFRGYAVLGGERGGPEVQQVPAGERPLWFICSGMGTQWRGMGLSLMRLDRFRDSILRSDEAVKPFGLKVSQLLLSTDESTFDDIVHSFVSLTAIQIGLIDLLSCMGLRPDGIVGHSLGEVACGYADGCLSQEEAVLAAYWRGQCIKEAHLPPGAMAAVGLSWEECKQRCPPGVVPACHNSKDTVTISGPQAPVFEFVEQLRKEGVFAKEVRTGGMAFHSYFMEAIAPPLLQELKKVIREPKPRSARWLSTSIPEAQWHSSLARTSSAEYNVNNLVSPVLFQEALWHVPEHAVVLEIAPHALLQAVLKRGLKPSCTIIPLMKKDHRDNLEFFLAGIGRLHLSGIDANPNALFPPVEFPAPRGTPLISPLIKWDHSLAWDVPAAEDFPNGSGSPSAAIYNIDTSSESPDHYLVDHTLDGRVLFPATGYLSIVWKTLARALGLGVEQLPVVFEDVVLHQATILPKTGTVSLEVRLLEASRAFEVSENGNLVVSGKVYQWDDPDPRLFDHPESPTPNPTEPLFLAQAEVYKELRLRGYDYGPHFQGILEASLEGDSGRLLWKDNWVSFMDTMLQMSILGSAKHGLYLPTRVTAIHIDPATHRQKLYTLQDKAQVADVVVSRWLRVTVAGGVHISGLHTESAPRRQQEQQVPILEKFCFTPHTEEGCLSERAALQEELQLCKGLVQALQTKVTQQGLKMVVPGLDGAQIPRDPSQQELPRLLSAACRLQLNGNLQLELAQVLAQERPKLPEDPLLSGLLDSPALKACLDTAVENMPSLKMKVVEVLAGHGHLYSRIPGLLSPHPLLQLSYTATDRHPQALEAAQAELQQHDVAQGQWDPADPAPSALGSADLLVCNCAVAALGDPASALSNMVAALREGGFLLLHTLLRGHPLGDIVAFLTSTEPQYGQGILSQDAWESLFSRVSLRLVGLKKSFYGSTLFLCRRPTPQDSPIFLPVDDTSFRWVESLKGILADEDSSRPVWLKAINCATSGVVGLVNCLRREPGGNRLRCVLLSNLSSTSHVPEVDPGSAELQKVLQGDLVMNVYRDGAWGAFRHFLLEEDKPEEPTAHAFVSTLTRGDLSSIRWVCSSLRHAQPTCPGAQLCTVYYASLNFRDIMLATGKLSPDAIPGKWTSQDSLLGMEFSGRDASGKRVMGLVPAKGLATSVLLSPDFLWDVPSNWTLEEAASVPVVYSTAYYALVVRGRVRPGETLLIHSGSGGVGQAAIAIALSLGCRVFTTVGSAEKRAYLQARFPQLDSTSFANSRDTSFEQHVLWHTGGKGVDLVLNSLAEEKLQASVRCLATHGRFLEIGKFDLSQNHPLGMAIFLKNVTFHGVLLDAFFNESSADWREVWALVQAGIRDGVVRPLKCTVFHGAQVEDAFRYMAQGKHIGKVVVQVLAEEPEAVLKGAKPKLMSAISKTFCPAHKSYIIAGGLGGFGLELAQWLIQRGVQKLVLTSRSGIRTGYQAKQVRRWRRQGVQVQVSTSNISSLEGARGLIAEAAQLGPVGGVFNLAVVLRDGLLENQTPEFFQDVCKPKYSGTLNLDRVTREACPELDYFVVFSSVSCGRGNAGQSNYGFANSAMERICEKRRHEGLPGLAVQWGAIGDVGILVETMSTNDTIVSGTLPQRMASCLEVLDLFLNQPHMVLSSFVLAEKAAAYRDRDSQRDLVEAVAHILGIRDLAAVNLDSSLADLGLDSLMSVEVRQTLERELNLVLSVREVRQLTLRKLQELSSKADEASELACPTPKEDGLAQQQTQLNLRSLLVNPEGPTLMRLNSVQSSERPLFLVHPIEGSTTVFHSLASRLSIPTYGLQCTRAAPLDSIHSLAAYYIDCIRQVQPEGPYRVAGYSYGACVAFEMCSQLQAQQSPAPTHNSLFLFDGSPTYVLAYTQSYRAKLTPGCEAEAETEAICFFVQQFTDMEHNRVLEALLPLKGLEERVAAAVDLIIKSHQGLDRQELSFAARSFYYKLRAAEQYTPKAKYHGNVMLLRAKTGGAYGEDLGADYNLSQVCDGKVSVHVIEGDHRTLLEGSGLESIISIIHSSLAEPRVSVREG
Assay: Antagonist activity at recombinant FASN thioesterase domain by fluorogenic assay
Type: functional
observation_type: Ki
Kindly write the number and append the unit.

Task item: Please look at this compound and report its Ki: O=C1O[C@@H](CCc2ccccc2)[C@H]1Cc1ccccc1
Reply: 2500 nM

---

Below, each of the compounds is paired with its reported pKi value.
Target: ATP-citrate synthase (Rattus norvegicus)
Sequence (P16638 whole entry): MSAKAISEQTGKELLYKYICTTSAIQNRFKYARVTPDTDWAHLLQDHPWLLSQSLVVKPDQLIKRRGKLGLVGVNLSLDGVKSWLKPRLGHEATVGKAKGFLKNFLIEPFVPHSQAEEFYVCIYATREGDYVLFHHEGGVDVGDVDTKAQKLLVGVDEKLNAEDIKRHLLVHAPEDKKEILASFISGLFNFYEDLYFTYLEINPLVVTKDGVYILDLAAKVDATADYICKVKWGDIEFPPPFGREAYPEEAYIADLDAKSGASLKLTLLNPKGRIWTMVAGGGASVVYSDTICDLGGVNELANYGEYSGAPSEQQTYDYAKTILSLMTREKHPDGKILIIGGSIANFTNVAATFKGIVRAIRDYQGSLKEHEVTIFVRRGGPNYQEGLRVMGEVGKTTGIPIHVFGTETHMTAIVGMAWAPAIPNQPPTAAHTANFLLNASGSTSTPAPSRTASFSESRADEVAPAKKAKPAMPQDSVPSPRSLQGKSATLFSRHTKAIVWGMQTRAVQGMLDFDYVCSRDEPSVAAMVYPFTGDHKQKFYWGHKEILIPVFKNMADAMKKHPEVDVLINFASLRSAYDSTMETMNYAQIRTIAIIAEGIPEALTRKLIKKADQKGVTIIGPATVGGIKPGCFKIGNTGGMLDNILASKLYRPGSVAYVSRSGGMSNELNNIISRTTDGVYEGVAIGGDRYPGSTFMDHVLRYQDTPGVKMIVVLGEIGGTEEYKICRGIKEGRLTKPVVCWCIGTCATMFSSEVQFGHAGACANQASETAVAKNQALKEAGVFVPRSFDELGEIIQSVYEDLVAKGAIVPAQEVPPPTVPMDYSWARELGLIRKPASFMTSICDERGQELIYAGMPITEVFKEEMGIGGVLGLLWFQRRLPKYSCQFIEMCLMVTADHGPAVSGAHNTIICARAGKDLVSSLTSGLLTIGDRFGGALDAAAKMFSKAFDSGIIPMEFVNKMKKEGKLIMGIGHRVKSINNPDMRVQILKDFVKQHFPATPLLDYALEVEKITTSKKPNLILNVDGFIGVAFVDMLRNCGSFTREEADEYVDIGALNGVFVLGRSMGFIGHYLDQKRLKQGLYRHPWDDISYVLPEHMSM
Test: Competitive inhibition of rat liver ACLY using citrate as substrate by spectrophotometric analysis
Remember the convention: pKi equals -log10 of concentration in molar.

chemical_smiles	pKi
C[C@@H]1C[C@H]2O[C@@H]2/C=C\C=C\C(=O)Cc2c(Cl)c(O)cc(O)c2C(=O)O1	4.89

Task item: Please look at this compound and report its pKi: CC(C)(CCCCCCCCCCC(C)(C)CC(=O)O)CC(=O)O
Reply: 4.80

---

Molecular target: UniProtKB P16638
observation_type: pIC50
Remember the convention: pIC50 equals -log10 of concentration in molar.

Task item: Please look at this compound and report its pIC50: O=C1C(c2ccc(O)c(O)c2)=c2c(c3c(n2CCc2ccc(O)cc2)=C(c2ccc(O)c(O)c2)C(=O)c2cc(O)c(O)cc2-3)-c2cc(O)c(O)cc21
Reply: 5.15
